Catalogue of log K readings, one per entry.
Assay Protocol: Lipophilicity, log K in methanol water
Assay type: physicochemical
Property: log K

- Compound: "CSc1nc(NCc2ccccc2F)c2cnn(CC(Cl)c3ccccc3)c2n1 (stereo not given)"
  Observed Result: 5.88
- Compound: "CSc1nc(NCc2cccc(F)c2)c2cnn(CC(Cl)c3ccccc3)c2n1 (stereo not given)"
  Observed Result: 6.07
- Compound: "CSc1nc(NCc2ccccc2)c2cnn(CC(Cl)c3ccc(Cl)cc3)c2n1 (stereo not given)"
  Observed Result: 6.03
- Compound: "CSc1nc(NCc2ccc(F)cc2)c2cnn(CC(Cl)c3ccccc3)c2n1 (stereo not given)"
  Observed Result: 6.05
- Compound: "CSc1nc(NCCc2ccccc2Cl)c2cnn(CC(Cl)c3ccccc3)c2n1 (stereo not given)"
  Observed Result: 6.16
